- study-system: wild type B-Raf (Homo sapiens (Human))
- Sequence (P15056 whole entry): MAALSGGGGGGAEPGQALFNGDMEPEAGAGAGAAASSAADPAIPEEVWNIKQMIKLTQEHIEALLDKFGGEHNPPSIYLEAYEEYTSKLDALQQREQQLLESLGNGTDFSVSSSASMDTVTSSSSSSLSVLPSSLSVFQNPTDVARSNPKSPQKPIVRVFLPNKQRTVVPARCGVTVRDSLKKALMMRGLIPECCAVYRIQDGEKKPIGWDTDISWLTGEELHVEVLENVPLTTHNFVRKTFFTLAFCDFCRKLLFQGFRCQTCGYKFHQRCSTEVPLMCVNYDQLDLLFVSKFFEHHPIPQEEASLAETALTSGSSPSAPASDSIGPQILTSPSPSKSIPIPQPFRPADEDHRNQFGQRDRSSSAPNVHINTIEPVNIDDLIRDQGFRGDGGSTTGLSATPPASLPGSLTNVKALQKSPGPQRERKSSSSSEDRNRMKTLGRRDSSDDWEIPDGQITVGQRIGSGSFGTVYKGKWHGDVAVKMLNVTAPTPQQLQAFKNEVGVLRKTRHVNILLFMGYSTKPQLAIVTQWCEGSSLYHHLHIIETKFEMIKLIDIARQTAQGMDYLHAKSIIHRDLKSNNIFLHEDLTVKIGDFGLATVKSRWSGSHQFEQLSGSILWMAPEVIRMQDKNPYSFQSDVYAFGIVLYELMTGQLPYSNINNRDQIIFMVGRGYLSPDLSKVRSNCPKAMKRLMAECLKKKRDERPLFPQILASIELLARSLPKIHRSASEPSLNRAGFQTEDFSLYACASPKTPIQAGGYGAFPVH
- test-protocol: WT BRaf IC50 assay, TR-FRET
- Assay type: biochemical
- test-context: Km ATP ([…] ATP); read-out: IC50 Braf-WT Km ATP
- Procedure: WT BRaf IC50 Assay Protocol Compounds disclosed herein were tested against wild type B-Raf (PV3848, from Invitrogen) in a time-resolved fluorescence energy transfer assay. […] Plates were sealed and incubated at room temperature for 1.5 hours, and then the TR-FRET signals were read on BMG PHERAstar FS instrument. The IC50 for each compound was calculated by non linear regression by Graphpad Prism software.
Classification scheme (IC50): bin 0: < 9 nM; bin 1: ≥ 9 nM and < 20 nM; bin 2: ≥ 20 nM

See these solved cases before continuing.
CCN1CCN(Cc2cc(C(=O)N[C@@H]3[C@H]4Oc5ccc(Oc6ccnc7c6CCC(=O)N7)cc5[C@@H]34)cc(C(F)(F)F)c2)CC1 : bin 1
CC(C)(N)c1cc(C(=O)N[C@@H]2[C@H]3Oc4ccc(Oc5ccnc6c5CCC(=O)N6)cc4[C@@H]23)cc(C(F)(F)F)c1 : bin 0
CCN1CCN(Cc2ccc(C(=O)N[C@@H]3[C@H]4Oc5ccc(Oc6ccnc7c6CCC(=O)N7)cc5[C@@H]34)cc2F)CC1 : bin 0
O=C1CCc2c(Oc3ccc4c(c3)[C@H]3[C@H](NC(=O)c5ccc(CN6CCCCC6)c(C(F)(F)F)c5)[C@H]3O4)ccnc2N1 : bin 2
CC(C)(C#N)c1cccc(C(=O)N[C@@H]2[C@H]3Oc4ccc(Oc5ccnc6c5CCC(=O)N6)cc4[C@@H]23)c1 : bin 0
O=C1CCc2c(Oc3ccc4c(c3)[C@H]3[C@H](NC(=O)c5cccc(C(F)(F)F)c5)[C@H]3O4)ccnc2N1 : bin 0
CN(C)Cc1ccc(C(=O)N[C@@H]2[C@H]3Oc4ccc(Oc5ccnc6c5CCC(=O)N6)cc4[C@@H]23)cc1C(F)(F)F : bin 2
CN1CCC(Oc2ccc(C(=O)N[C@@H]3[C@H]4Oc5ccc(Oc6ccnc7c6CCC(=O)N7)cc5[C@@H]34)cc2C(F)(F)F)CC1 : bin 1
CCN1CCN(Cc2ccc(C(=O)N[C@@H]3[C@H]4Oc5ccc(Oc6ccnc7c6COC(=O)N7)cc5[C@@H]34)cc2C(F)(F)F)CC1 : bin 1
O=C1CCc2c(Oc3ccc4c(c3)[C@H]3[C@H](NC(=O)c5ccc(CN6CCNCC6)c(C(F)(F)F)c5)[C@H]3O4)ccnc2N1 : bin 2

Problem: Which IC50 band matches CN1CCN(Cc2ccc(C(=O)N[C@@H]3[C@H]4Oc5ccc(Oc6ccnc7c6CCC(=O)N7)cc5[C@@H]34)cc2C(F)(F)F)CC1 ?
Result: bin 1

Problem: Which IC50 band matches O=C1CCc2c(Oc3ccc4c(c3)[C@H]3[C@H](NC(=O)c5ccc(C(F)(F)F)cc5)[C@H]3O4)ccnc2N1 ?
Result: bin 0

Problem: Which IC50 band matches O=C1CCc2c(Oc3ccc4c(c3)[C@H]3[C@H](NC(=O)c5cccc(F)c5)[C@H]3O4)ccnc2N1 ?
Result: bin 0

Problem: Which IC50 band matches CCN1CCN(Cc2ccc(C(=O)N[C@@H]3[C@H]4Oc5ccc(Oc6ccnc(C(=O)NC)c6)cc5[C@@H]34)cc2C(F)(F)F)CC1 ?
Result: bin 2

Problem: Which IC50 band matches NC1(c2cc(C(=O)N[C@@H]3[C@H]4Oc5ccc(Oc6ccnc7c6CCC(=O)N7)cc5[C@@H]34)cc(C(F)(F)F)c2)CC1 ?
Result: bin 0

Problem: Which IC50 band matches CN(C)[C@@H]1CCCN(Cc2ccc(C(=O)N[C@@H]3[C@H]4Oc5ccc(Oc6ccnc7c6CCC(=O)N7)cc5[C@@H]34)cc2C(F)(F)F)C1 ?
Result: bin 1

Problem: Which IC50 band matches CN1CCN(c2ccc(C(=O)N[C@@H]3[C@H]4Oc5ccc(Oc6ccnc7c6CCC(=O)N7)cc5[C@@H]34)cc2C(F)(F)F)CC1 ?
Result: bin 1

Problem: Which IC50 band matches CN(C)[C@H]1CCN(Cc2ccc(C(=O)N[C@@H]3[C@H]4Oc5ccc(Oc6ccnc7c6CCC(=O)N7)cc5[C@@H]34)cc2C(F)(F)F)C1 ?
Result: bin 2

Problem: Which IC50 band matches CCN1CCN(Cc2ccc(C(=O)N[C@H]3[C@@H]4Oc5ccc(Oc6ccnc7c6CCC(=O)N7)cc5[C@H]34)cc2C(F)(F)F)CC1 ?
Result: bin 2

Problem: Which IC50 band matches CN1CCN(CCOc2ccc(C(=O)N[C@@H]3[C@H]4Oc5ccc(Oc6ccnc7c6CCC(=O)N7)cc5[C@@H]34)cc2C(F)(F)F)CC1 ?
Result: bin 1

Problem: Which IC50 band matches CN(C)[C@H]1CCCN(Cc2ccc(C(=O)N[C@@H]3[C@H]4Oc5ccc(Oc6ccnc7c6CCC(=O)N7)cc5[C@@H]34)cc2C(F)(F)F)C1 ?
Result: bin 2

Problem: Which IC50 band matches CN(C)[C@H]1CCCN(c2ccc(C(=O)N[C@@H]3[C@H]4Oc5ccc(Oc6ccnc7c6CCC(=O)N7)cc5[C@@H]34)cc2C(F)(F)F)C1 ?
Result: bin 0

Problem: Which IC50 band matches O=C1CCc2c(Oc3ccc4c(c3)[C@H]3[C@H](NC(=O)c5ccc(CN6CCN7CCC[C@@H]7C6)c(C(F)(F)F)c5)[C@H]3O4)ccnc2N1 ?
Result: bin 1

Problem: Which IC50 band matches CCN1CCN(Cc2ccc(C(=O)N[C@@H]3[C@H]4Oc5ccc(Oc6ccnc7c6CCC(=O)N7)cc5[C@@H]34)cc2C(F)(F)F)CC1 ?
Result: bin 1
